- experimental.target: CGRP receptor (Homo sapiens, UniProt O60894+Q16602)
- Construct: endogenous in cells
- Sequence (Q16602 23-461): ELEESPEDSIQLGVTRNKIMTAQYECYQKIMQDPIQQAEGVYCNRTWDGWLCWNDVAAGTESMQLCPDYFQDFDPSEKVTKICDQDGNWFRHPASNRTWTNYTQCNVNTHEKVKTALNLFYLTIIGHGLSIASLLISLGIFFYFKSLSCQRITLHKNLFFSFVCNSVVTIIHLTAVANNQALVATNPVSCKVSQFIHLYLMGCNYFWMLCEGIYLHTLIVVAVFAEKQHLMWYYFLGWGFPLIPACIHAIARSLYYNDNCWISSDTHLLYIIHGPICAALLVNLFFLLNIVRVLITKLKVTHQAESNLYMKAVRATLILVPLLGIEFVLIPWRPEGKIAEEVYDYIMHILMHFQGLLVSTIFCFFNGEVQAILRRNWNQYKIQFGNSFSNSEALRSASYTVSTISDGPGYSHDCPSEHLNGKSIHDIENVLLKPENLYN
- Sequence (O60894 27-148): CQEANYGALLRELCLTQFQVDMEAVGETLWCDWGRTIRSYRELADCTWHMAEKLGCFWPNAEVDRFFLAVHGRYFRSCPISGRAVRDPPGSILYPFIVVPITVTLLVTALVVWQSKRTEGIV
- experiment.summary: CGRP radioligand binding assay ([125I]-CGRP displacement, SK-N-MC cell homogenate)
- conditions: displacement of 50% of [125I]-CGRP binding, room temperature 2 h
pIC50: −log10 of the molar value.
pIC50: recorded values

Some compounds with recorded pIC50:
chemical.smiles: Cc1cc(C[C@@H](NC(=O)N2CCC(N3Cc4ccccc4NC3=O)CC2)C(=O)N[C@@H](CCCCN)C(=O)N2CCN(c3ccncc3)CC2)cc2cn[nH]c12
pIC50: 8.00 to 11.00
--
chemical.smiles: Cc1cc(C[C@@H](NC(=O)N2CCC(c3cc4cccc(F)c4[nH]c3=O)CC2)C(=O)N[C@@H](CCCCN)C(=O)N2CCN(c3ccncc3)CC2)cc2cn[nH]c12
pIC50: 8.00 to 11.00

Ask: Given the compound `Cc1cc(C[C@@H](NC(=O)N2CCC(N3Cc4ccccc4NC3=O)CC2)C(=O)N[C@@H](CCCCNC(=O)OC(C)(C)C)C(=O)N2CCN(c3ccncc3)CC2)cc2cn[nH]c12` , what is its reported pIC50?
Reply: 8.00 to 11.00
